Target: UDP-galactopyranose mutase (Mycobacterium tuberculosis (strain ATCC 25618 / H37Rv))
Assay: blockers of Mtb UDP-galactopyranose mutase – biochemical, fluorescence polarization, single point, primary screen (AID 504406)
Conditions: purified UGM, fluorescence polarization probe displacement; at 10 µM; hits give high values
Among all 320,000 compounds or so, about 190 (0.059%) were called active. The entries come from a sample that favours actives as a whole.
measurement-type: inhibition (%)
Your answer is read as %, so omit the unit and give the number.

[[record]]
compound = "COc1cccc2cc(/C(C)=N/NC(=O)c3ccco3)oc12"
observed_value = 1.34


Now for another entry.
For reference, reported inhibition for S=C(NCCc1ccccc1)N1CCn2cccc2C1c1ccncc1 (stereo not given) stands at 0.92

====

Target: UDP-galactopyranose mutase (Mycobacterium tuberculosis (strain ATCC 25618 / H37Rv))
Assay: blockers of Mtb UDP-galactopyranose mutase – biochemical, fluorescence polarization, single point, primary screen (AID 504406)
Details: purified UGM, fluorescence polarization probe displacement; at 10 µM; hits give high values
The whole screen tested about 320,000 compounds, of which about 190 (0.059%) were called active. For the sample, actives were picked, then their nearest neighbours and some compounds at random.
Overview of reported inhibition across a group of compounds:
# unit: % | format: bare number

Known results for compounds:
[[record]]
compound = "O=C(Nc1ccc([N+](=O)[O-])cc1)OCCc1ccccn1"
test_system = "UDP-galactopyranose mutase (Mycobacterium tuberculosis (strain ATCC 25618 / H37Rv))"
observed_value = -0.463

[[record]]
compound = "CCOc1ccccc1-n1c(SCC(=O)N2CCCC2)nnc1-c1ccoc1C"
test_system = "UDP-galactopyranose mutase (Mycobacterium tuberculosis (strain ATCC 25618 / H37Rv))"
observed_value = 0.65

[[record]]
compound = "COc1ccc(/C=C/C(=O)OCC(=O)NC2CCCCCC2)cc1OC"
test_system = "UDP-galactopyranose mutase (Mycobacterium tuberculosis (strain ATCC 25618 / H37Rv))"
observed_value = 29.9

[[record]]
compound = "CCN(Cc1ccncc1)C(=O)CCc1ccccc1"
test_system = "UDP-galactopyranose mutase (Mycobacterium tuberculosis (strain ATCC 25618 / H37Rv))"
observed_value = -1.33

[[record]]
compound = "Cc1nc(NCc2ccccc2)c(C(N)=O)c2c1COC(C)(C)C2"
test_system = "UDP-galactopyranose mutase (Mycobacterium tuberculosis (strain ATCC 25618 / H37Rv))"
observed_value = -0.415

[[record]]
compound = "Cc1cc(C(=O)OCC(=O)Nc2ccc(F)c(F)c2)c(C)o1"
test_system = "UDP-galactopyranose mutase (Mycobacterium tuberculosis (strain ATCC 25618 / H37Rv))"
observed_value = -0.0838

[[record]]
compound = "COc1ccc(C(O)(C2CCCCC2)C(CN2CCCC2)c2ccccc2)cc1 (stereo not given)"
test_system = "UDP-galactopyranose mutase (Mycobacterium tuberculosis (strain ATCC 25618 / H37Rv))"
observed_value = 1.17

[[record]]
compound = "CN1CCN(S(=O)(=O)c2cccc(C(=O)N3CCc4ccccc43)c2)CC1"
test_system = "UDP-galactopyranose mutase (Mycobacterium tuberculosis (strain ATCC 25618 / H37Rv))"
observed_value = 2.67


Okay, next one:
The compound listed as CC(C)CCNc1nc(N2CCCC2)c2c(c1C#N)CCN(C)C2 shows inhibition equal to 3.98

====

Target: UDP-galactopyranose mutase (Mycobacterium tuberculosis (strain ATCC 25618 / H37Rv))
Assay: blockers of Mtb UDP-galactopyranose mutase – biochemical, fluorescence polarization, single point, primary screen (AID 504406)
Settings: purified UGM, fluorescence polarization probe displacement; at 10 µM; hits give high values
The whole screen tested about 320,000 compounds, of which about 190 (0.059%) were called active. The full list was thinned out, with actives kept by preference.
Recorded inhibition by entry
Supply the numeric figure in %, leaving out any unit text.

Lab note: measured inhibition of Cc1ccc(NC(=O)Cc2nnc(SCC(=O)Nc3nncs3)n2C)cc1 was 1.58

// COC(=O)C[n+]1cccc2ccccc21 : inhibition value = 13.9

Noted for COc1ccc(/C=C(/NC(=O)c2ccco2)C(=O)Nc2ccc(C(C)=O)cc2)cc1 : its inhibition reads 0.676

Reported inhibition of O=C(COc1cc(Cl)c(Cl)cc1Cl)NCCc1ccccn1 : 1.96

Data credit: PubChem BioAssay AID504406
